Origin of measurements: patent US20170298395A1

system: RubisCO; type: cell-based, Ralstonia eutropha; conditions: Table 12, chemoautotrophic (induced) growth
OUTCOME_MEASURE: Chemoautotrophic RubisCO activity

1) wt CbbR: wild-type CbbR (R. eutropha), 317 amino acids, SEQ ID NO: 1 (protein) MSSFLRALTLRQLQIFVTVARHASFVRAAEELHLTQPAVSMQVKQLESVVGMALFERVKGQLTLTEPGDRLLHHASRILGEVKDAEEGLQAVKDVEQGSITIGLISTSKYFAPKLLAGFTALHPGVDLRIAEGNRETLLRLLQDNAIDLALMGRPPRELDAVSEPIAAHPHVLVASPRHPLHDAKGFDLQELRHETFLLREPGSGTRTVAEYMFRDHLFTPAKVITLGSNETIKQAVMAGMGISLLSLHTLGLELRTGEIGLLDVAGTPIERIWHVAHMSSKRLSPASESCRAYLLEHTAEFLGREYGGLMPGRRVA
139 nmol/min/mg of protein
2) A117V (protein) MSSFLRALTLRQLQIFVTVARHASFVRAAEELHLTQPAVSMQVKQLESVVGMALFERVKGQLTLTEPGDRLLHHASRILGEVKDAEEGLQAVKDVEQGSITIGLISTSKYFAPKLLVGFTALHPGVDLRIAEGNRETLLRLLQDNAIDLALMGRPPRELDAVSEPIAAHPHVLVASPRHPLHDAKGFDLQELRHETFLLREPGSGTRTVAEYMFRDHLFTPAKVITLGSNETIKQAVMAGMGISLLSLHTLGLELRTGEIGLLDVAGTPIERIWHVAHMSSKRLSPASESCRAYLLEHTAEFLGREYGGLMPGRRVA
314 nmol/min/mg of protein
3) P221S/T299I (protein) MSSFLRALTLRQLQIFVTVARHASFVRAAEELHLTQPAVSMQVKQLESVVGMALFERVKGQLTLTEPGDRLLHHASRILGEVKDAEEGLQAVKDVEQGSITIGLISTSKYFAPKLLAGFTALHPGVDLRIAEGNRETLLRLLQDNAIDLALMGRPPRELDAVSEPIAAHPHVLVASPRHPLHDAKGFDLQELRHETFLLREPGSGTRTVAEYMFRDHLFTSAKVITLGSNETIKQAVMAGMGISLLSLHTLGLELRTGEIGLLDVAGTPIERIWHVAHMSSKRLSPASESCRAYLLEHIAEFLGREYGGLMPGRRVA
212 nmol/min/mg of protein

Which measured Chemoautotrophic RubisCO activity value corresponds to D148N (protein) MSSFLRALTLRQLQIFVTVARHASFVRAAEELHLTQPAVSMQVKQLESVVGMALFERVKGQLTLTEPGDRLLHHASRILGEVKDAEEGLQAVKDVEQGSITIGLISTSKYFAPKLLAGFTALHPGVDLRIAEGNRETLLRLLQDNAINLALMGRPPRELDAVSEPIAAHPHVLVASPRHPLHDAKGFDLQELRHETFLLREPGSGTRTVAEYMFRDHLFTPAKVITLGSNETIKQAVMAGMGISLLSLHTLGLELRTGEIGLLDVAGTPIERIWHVAHMSSKRLSPASESCRAYLLEHTAEFLGREYGGLMPGRRVA ?
242 nmol/min/mg of protein
